Where these numbers come from: paper PMC6273578

- testedOn: UniProt:P00533
- assayName: EGFR kinase inhibition, solid-phase ELISA assay
pIC50: −log10 of the molar value.
endpointLabel: pIC50

COc1ccc(/C=N/NC(=O)c2ccc(N3N=C(c4cccc(Cl)c4)CC3c3ccc4ccccc4c3)cc2)cc1 (stereo not shown): 4.95
COc1ccc(/C=N/NC(=O)c2ccc(N3N=C(c4ccc(Cl)cc4)CC3c3ccc4ccccc4c3)cc2)cc1 (stereo not shown): 5.00
COc1ccc(/C=N/NC(=O)c2ccc(N3N=C(c4ccc(F)cc4)CC3c3ccc4ccccc4c3)cc2)cc1 (stereo not shown): 4.86

[P] COc1cccc(/C=N/NC(=O)c2ccc(N3N=C(c4cc(OC)c(OC)c(OC)c4)CC3c3ccc4ccccc4c3)cc2)c1 (stereo not shown)
[Q] COc1ccc(/C=N/NC(=O)c2ccc(N3N=C(c4ccc(Cl)c(Cl)c4)CC3c3ccc4ccccc4c3)cc2)cc1 (stereo not shown)
[R] COc1cccc(/C=N/NC(=O)c2ccc(N3N=C(c4ccccc4F)CC3c3ccc4ccccc4c3)cc2)c1 (stereo not shown)
[S] COc1ccc(/C=N/NC(=O)c2ccc(N3N=C(c4ccc(C)cc4)CC3c3ccc4ccccc4c3)cc2)cc1 (stereo not shown)
Q. Write the entries in order, lowest recorded pIC50 first. Give your ranking as a list of the labels in the requested order.
A. P, R, Q, S

* * *

- System: MCF-7 cells
- assayName: MTT antiproliferative assay, MCF-7
- Assay type: cell-based, human
- conditionsUsed: Homo sapiens, MCF7, read-out: In vitro antiproliferative activity IC50, MCF-7
endpointLabel: IC50 (µM)

COc1ccc(/C=N/NC(=O)c2ccc(N3N=C(c4ccc(C)cc4)CC3c3ccc4ccccc4c3)cc2)cc1 (stereo not shown): 0.29

[1] COc1ccc(/C=N/NC(=O)c2ccc(N3N=C(c4cc(OC)c(OC)c(OC)c4)CC3c3ccc4ccccc4c3)cc2)cc1 (stereo not shown)
[2] CCOc1ccc(C2=NN(c3ccc(C(=O)N/N=C/c4ccc(OC)cc4)cc3)C(c3ccc4ccccc4c3)C2)cc1 (stereo not shown)
[3] COc1ccc(/C=N/NC(=O)c2ccc(N3N=C(c4cc(F)cc(F)c4)CC3c3ccc4ccccc4c3)cc2)cc1 (stereo not shown)
Q. Please give the order of these molecules when sorted by IC50, largest value leading. Give your ranking as a list of the labels in the requested order.
A. 1, 3, 2

* * *

- testedOn: epidermal growth factor receptor (EGFR) (Homo sapiens, UniProt P00533)
- Sequence (P00533 25-1210): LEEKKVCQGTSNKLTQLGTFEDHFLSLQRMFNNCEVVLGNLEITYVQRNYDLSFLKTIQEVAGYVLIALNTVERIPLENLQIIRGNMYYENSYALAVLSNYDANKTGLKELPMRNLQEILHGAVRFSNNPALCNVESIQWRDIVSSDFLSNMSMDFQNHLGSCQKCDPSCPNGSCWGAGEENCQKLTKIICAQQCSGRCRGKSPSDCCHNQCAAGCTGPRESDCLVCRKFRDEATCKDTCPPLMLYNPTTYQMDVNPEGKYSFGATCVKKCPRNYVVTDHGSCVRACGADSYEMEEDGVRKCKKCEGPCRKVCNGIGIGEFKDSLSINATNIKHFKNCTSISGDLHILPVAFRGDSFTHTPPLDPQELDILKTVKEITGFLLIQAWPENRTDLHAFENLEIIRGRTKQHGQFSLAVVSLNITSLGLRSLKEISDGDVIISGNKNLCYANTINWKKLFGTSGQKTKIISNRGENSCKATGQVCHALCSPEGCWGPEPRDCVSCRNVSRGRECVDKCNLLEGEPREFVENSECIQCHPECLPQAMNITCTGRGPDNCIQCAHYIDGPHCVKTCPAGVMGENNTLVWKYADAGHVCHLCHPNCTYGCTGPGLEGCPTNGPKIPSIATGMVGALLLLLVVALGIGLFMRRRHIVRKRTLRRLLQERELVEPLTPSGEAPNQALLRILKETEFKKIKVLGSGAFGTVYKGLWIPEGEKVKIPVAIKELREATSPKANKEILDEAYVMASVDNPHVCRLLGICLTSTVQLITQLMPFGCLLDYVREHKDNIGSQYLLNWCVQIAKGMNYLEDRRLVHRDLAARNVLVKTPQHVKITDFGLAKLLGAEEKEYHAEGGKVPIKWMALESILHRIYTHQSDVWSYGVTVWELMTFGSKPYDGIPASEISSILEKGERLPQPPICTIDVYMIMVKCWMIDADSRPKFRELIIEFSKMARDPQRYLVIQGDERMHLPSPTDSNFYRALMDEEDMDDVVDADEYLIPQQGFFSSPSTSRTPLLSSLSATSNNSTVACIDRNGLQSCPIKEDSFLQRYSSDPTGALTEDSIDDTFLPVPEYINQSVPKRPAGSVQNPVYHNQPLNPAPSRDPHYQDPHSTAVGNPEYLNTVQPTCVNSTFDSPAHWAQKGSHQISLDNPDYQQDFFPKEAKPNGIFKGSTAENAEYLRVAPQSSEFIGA
- assayName: EGFR kinase inhibition, solid-phase ELISA assay
- conditionsUsed: read-out: Inhibition activity IC50 against EGFR; solid-phase ELISA assay
endpointLabel: IC50 (µM)

Recorded IC50, per entry:
COc1cccc(/C=N/NC(=O)c2ccc(N3N=C(c4ccccc4C)CC3c3ccc4ccccc4c3)cc2)c1 (stereo not shown) [Compound H2]: 0.65
COc1cccc(/C=N/NC(=O)c2ccc(N3N=C(c4ccc(C)cc4)CC3c3ccc4ccccc4c3)cc2)c1 (stereo not shown) [Compound H4]: 0.23

[I] COc1ccc(/C=N/NC(=O)c2ccc(N3N=C(c4ccccc4C)CC3c3ccc4ccccc4c3)cc2)cc1 (stereo not shown) [Compound H18]
[II] COc1cccc(/C=N/NC(=O)c2ccc(N3N=C(c4cccc(C)c4)CC3c3ccc4ccccc4c3)cc2)c1 (stereo not shown) [Compound H3]
Q. Response body: label of entry with the larger IC50; valid values I , II . // return label of chosen record
A. II
(II: 2.12 µM, I: 0.48 µM)
